Experiment: NCI Yeast Anticancer Drug Screen. Data for the sgs1 mgt1 strain (AID 161);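 also: 0% = growth of cultures given vehicle only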
Conditions: S. cerevisiae sgs1 mgt1 strain, at 50.0 µM, active compounds read high
The panel holds about 79,000 compounds, 15% with a hit somewhere; the sample as a whole holds those more often.
metric-name: growth inhibition (%)
The reply should be a number in %, with the unit left off.

Field: example entries. Status: answers known.
>  <compound>
COP(=O)(OC)C(=O)c1ccc(C)cc1

>  <recorded-number>
1.55

$$$$
>  <compound>
c1ccc(C(c2ccccc2)c2cccnc2)cc1

>  <recorded-number>
91.6

$$$$
>  <compound>
CCOP(=O)(OCC)Oc1cc(C)c(SC)c(C)c1

>  <recorded-number>
-0.6

$$$$

Consider CN(C)c1ncnc2c1ncn2C1OC(CO)C2NP(=O)(N(CCCl)CCCl)OC21 (stereo unspecified) . Its measured growth inhibition is 71.2

Briefly, growth inhibition measured for `O=C(O)C(Cl)(Cl)Cl` : -15.8

Notebook: `OC[P+](CO)(CO)CO` , growth inhibition read as -8.15

Lab note: `CCOC(=O)CC(=Nc1cc(C)on1)N(CC)CC` gave growth inhibition of 6.3

Value of growth inhibition reported for the compound `NCCN.NCCN.O=C([O-])CCl.O=C([O-])CCl.[Co+3].[O-][Cl+3]([O-])([O-])[O-]` is -43.2

`O=C(N/N=C/c1cc(Br)cc(Br)c1[O-])c1ccccc1O.O=C(N/N=C/c1cc(Br)cc(Br)c1[O-])c1ccccc1O.[Cl-].[Fe+3]` yielded growth inhibition of -4.95

Data point: `CCN(CC)CC(=O)c1ccccc1` ; growth inhibition = -21.2

The reported value for `C/C(=C\C(C)C)C1(C)C(=O)NC(=O)NC1=O` in terms of growth inhibition is -6.3

For reference, reported growth inhibition for `CCc1ccc(OP(=O)(Oc2cc(C)cc(C)c2)Oc2cc(C)cc(C)c2)cc1` stands at -16.1

growth inhibition measured on `COc1ccc(NC2=NCCO2)c2ccccc12` = -31.1

Per the record, `CN1C(=O)C2(C)SSC1(C)C(=O)N2C` has growth inhibition of 97.5

Briefly, growth inhibition measured for `C[CH2][Pb]([CH2]C)([CH2]C)[O]C(=O)COc1ccc(Cl)cc1Cl` : 95

Entry `CCOP(=O)(OCC)/C(C#N)=C(\C)c1ccco1` — recorded growth inhibition = -15.3

// growth inhibition lookup, compound = Nc1cccc([As]=S)c1 (stereo unspecified) , result: 91.5

`C[Se]C([Se]C)=C([Se]C)[Se]C` has a reported growth inhibition of 52

The reported value for `CC(=O)[O-].O=[N+]([O-])c1ccc([O-])c(C=NCCN=Cc2cc([N+](=O)[O-])ccc2[O-])c1.[Mn+3]` in terms of growth inhibition is 91.6

Item: N#CSCC(=O)O (tested in a mixture with another compound) | growth inhibition: 5.85

The value of growth inhibition measured for the compound CCCCCCNC(=O)C(C)Br (stereo unspecified) turned out to be -0.55

Looking up `O=C([O-])CN(CCN(CC(=O)[O-])CC(=O)O)CC(=O)O.[Fe+5].[Na+]` , I see its growth inhibition listed as 0.35

// sample Nc1cccc2scnc12 (tested in a mixture with another compound) , its growth inhibition was 29.7

growth inhibition in this record for CCCCCCCCCCCCCCC(O)C1CCC(C(O)CCC(O)CCCCCC(O)CC2=CC(C)OC2=O)O1 (stereo unspecified) : -17.6

Looking up `CCC1(CC)C(=O)N(C)P(=O)(Oc2ccccc2)N(C)C1=O` , I see its growth inhibition listed as 9.3

`CC(=O)c1ccccc1O.CO.CO.[Cl][Ta][Cl]` yielded growth inhibition of -9.65

So for `CNC(=O)Oc1cccc(NC(=O)OC(C)(C)C)c1` , the logged growth inhibition turned out to be 27.1

Record CCN(CC)P1(=O)OP(=O)(N(CC)CC)OP(=O)(N(CC)CC)O1 (stereo unspecified) , field growth inhibition: 11.8
